src = ChEMBL document CHEMBL4007499

assayMethodText: in vitro
studyConditions: human, 293T cells expressing Gluc
Description: Selectivity index, ratio of CC50 for human 293T cells expressing Gluc to EC50 for Influenza A virus WSN/33(H1N1)
Exercise: for every item that follows, state its recorded selectivity ratio.
Just the number, please, no unit attached.

May I ask what selectivity ratio has been recorded for C[C@H]1O[C@@H](O[C@H]2CC[C@]3(C)C4=CC=C5[C@@H]6CC(C)(C)CC[C@]6(CO)[C@@H](O)C[C@@]5(C)[C@]4(C)CC[C@H]3[C@]2(C)CO)[C@H](O)[C@@H](O[C@@H]2O[C@H](CO)[C@@H](O)[C@H](O)[C@H]2O)[C@H]1O ?
1.19

Another compound to look at: C/C=C/C(=O)OC[C@H]1O[C@@H](O[C@H]2[C@@H](O)[C@@H](C)O[C@@H](O[C@H]3CC[C@@]4(C)[C@@H](CC[C@]5(C)[C@@H]4C=C[C@]46OC[C@@]7(CCC(C)(C)C[C@H]74)[C@@H](O)C[C@]65C)[C@]3(C)CO)[C@@H]2O)[C@H](O)[C@@H](O)[C@@H]1O
0.79

Another compound to look at: C[C@H]1O[C@@H](O[C@H]2CC[C@]3(C)C4=CC=C5[C@@H]6CC(C)(C)CC[C@]6(CO)[C@H](O)C[C@@]5(C)[C@]4(C)CC[C@H]3[C@]2(C)CO)[C@H](O)[C@@H](O[C@@H]2O[C@H](CO)[C@@H](O)[C@H](O)[C@H]2O)[C@H]1O
1.75

Another compound to look at: C[C@H]1O[C@@H](O[C@H]2CC[C@@]3(C)[C@@H](CC[C@]4(C)[C@@H]3C=CC3=C5CC(C)(C)CC[C@]5(CO)[C@@H](O)C[C@]34C)[C@]2(C)CO)[C@H](O)[C@@H](O)[C@H]1O
2.89

Another compound to look at: C[C@H]1O[C@@H](O[C@H]2CC[C@@]3(C)[C@@H](CC[C@]4(C)[C@@H]3C=C[C@]35OC[C@@]6(CCC(C)(C)C[C@H]63)C(=O)C[C@]54C)[C@]2(C)CO)[C@H](O)[C@@H](O[C@@H]2O[C@H](CO)[C@@H](O)[C@H](O)[C@H]2O)[C@H]1O
1.43

---

assayMethodText: in vitro
studyConditions: human, 293T cells expressing Gluc
Exercise: for every item that follows, state its recorded selectivity ratio.

May I ask what selectivity ratio has been recorded for NC(=O)c1ncn([C@@H]2O[C@H](CO)[C@@H](O)[C@H]2O)n1 ?
> 11.4

Another compound to look at: C[C@@H]1O[C@@H](O[C@H]2[C@H](O)[C@@H](O)[C@H](O[C@H]3CC[C@]4(C)[C@H]5C=CC6=C7CC(C)(C)CC[C@]7(CO)[C@@H](O)[C@H](O)[C@@]6(C)[C@]5(C)CC[C@H]4C3(C)C)O[C@@H]2CO[C@@H]2O[C@H](CO)[C@@H](O)[C@H](O)[C@H]2O)[C@H](O)[C@H](O)[C@H]1O
> 19.8

Another compound to look at: C[C@H]1O[C@@H](O[C@H]2CC[C@]3(C)[C@H]4C=C[C@]56OC[C@@]7(CCC(C)(C)C[C@H]75)[C@@H](O)C[C@@]6(C)[C@]4(C)CC[C@H]3C2(C)C)[C@H](O)[C@@H](O[C@@H]2O[C@H](CO)[C@@H](O)[C@H](O)[C@H]2O)[C@H]1O
1.33
